Measured On: Urokinase-type plasminogen activator (Homo sapiens, UniProt P00749)
Test Method Notes: Inhibition constant against Urokinase
Under this convention, yes (1) denotes Ki strictly below 100 µM and no (0) denotes Ki at or above 100 µM.

N=C(N)c1ccc2c(C=O)c[nH]c2c1	yes (1)

Query string: In the record for N=C(N)c1ccc(Cn2ccc3cc([N+](=O)[O-])ccc32)cc1 , is Ki less than 100 µM?
Result string: no (0)

Query string: Criterion: Ki strictly below 100 µM. Is it met by N=C(N)c1ccc2c(ccn2Cc2ccccc2)c1 ?
Result string: no (0)

Query string: Hello, I'm reviewing records and need to know if Ki of N=C(N)c1ccc(OCCOc2ccc(-c3nc4ccc(C(=N)N)cc4[nH]3)cc2)cc1 is below 100 µM. Could you check?
Result string: yes (1)

Query string: Would you kindly verify if Ki of N=C(N)c1ccc2c(ccn2CCCCn2ccc3cc(C(=N)N)ccc32)c1 is strictly less than 100 µM?
Result string: yes (1)

Query string: Is 100 µM strictly greater than the compound's reported Ki? compound: CCn1ccc2cc(C(=N)N)ccc21
Result string: no (0)

Query string: Here's an entry: N=C(N)c1ccc(OCCCCOc2ccc(-c3nc4ccc(C(=N)N)cc4[nH]3)cc2)cc1 . Is its Ki below 100 µM?
Result string: yes (1)

Query string: Does this compound meet the criterion Ki < 100 µM? N=C(N)c1ccc2[nH]ccc2c1
Result string: no (0)

Query string: Identify whether the compound Cn1ccc2cc(C(=N)N)ccc21 records Ki below 100 µM.
Result string: no (0)

Query string: Is it true that Ki reported for N=C(N)c1ccc2c(ccn2Cc2ccc([N+](=O)[O-])cc2N)c1 is less than 100 µM?
Result string: yes (1)

* * *

Measured On: UniProtKB P00760
Sequence (P00760 whole entry): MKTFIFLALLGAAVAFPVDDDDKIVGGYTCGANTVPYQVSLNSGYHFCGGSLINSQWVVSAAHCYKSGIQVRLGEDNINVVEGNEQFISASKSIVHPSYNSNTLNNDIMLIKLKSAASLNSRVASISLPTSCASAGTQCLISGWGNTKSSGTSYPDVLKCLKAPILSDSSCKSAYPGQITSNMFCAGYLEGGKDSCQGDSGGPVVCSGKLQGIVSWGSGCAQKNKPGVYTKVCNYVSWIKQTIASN
Param label: returns true when Ki < 8 µM, returns false otherwise, including exact equality.

Field: example entries. Status: answers known.
CCn1ccc2cc(C(=N)N)ccc21	false
N=C(N)c1ccc(Cn2ccc3cc(C(=N)N)ccc32)c(Cl)c1	true
Cn1ccc2cc(C(=N)N)ccc21	false
N=C(N)c1ccc2c(C(=O)C(F)(F)F)c[nH]c2c1	false

Moving on to another compound below.
Query string: I wonder whether N=C(N)c1ccc2c(ccn2Cc2cccc(N)c2)c1 has Ki below 8 µM. Can you tell?
Result string: false

* * *

Listed below: pKi values for each entry.
Measured On: Prothrombin (Bos taurus)
pKi is a log-scale quantity: -log10 of the concentration expressed in molar.

N=C(N)c1cccc(Cn2ccc3cc(C(=N)N)ccc32)c1	4.65
CC(=O)c1c[nH]c2cc(C(=N)N)ccc12	2.72
N=C(N)c1ccc2c(ccn2Cc2ccc([N+](=O)[O-])cc2N)c1	5.32
N=C(N)c1ccc2c(ccn2CCCCn2ccc3cc(C(=N)N)ccc32)c1	4.95
Cn1ccc2cc(C(=N)N)ccc21	4.45

So for N=C(N)c1ccc(Cn2ccc3ccccc32)cc1 , the logged pKi turned out to be 4.88

What the record says about N=C(N)c1ccc2c(ccn2Cc2cccc([N+](=O)[O-])c2)c1 : pKi is 5.19

Field pKi (entry N=C(N)c1ccc2[nH]c(Oc3ccc(-c4nc5cc(C(=N)N)ccc5[nH]4)cc3)nc2c1 ) reads 5.40

pKi in this record for N=C(N)c1ccc(Cn2ccc3cc(C(=N)N)ccc32)cc1 : 4.61

// sample N=C(N)c1ccc2[nH]ccc2c1 , its pKi was 5.11

Short answer for N=C(N)c1ccc2c(C(=O)c3ccccc3)c[nH]c2c1 : pKi was 3.75
